- Test system: Escherichia coli
- ASSAY_DETAILS: Antibacterial activity against Escherichia coli DH10beta harboring pHuLUC3 after 18 to 20 hrs by microdilution method
- Type: functional
VALUE_TYPE: log10 MIC (log10 of the value in µg/mL)

COMPOUND_STRING: O=C(c1ccccc1F)N(/N=N/c1ccc([N+](=O)[O-])cc1Br)c1ccc([N+](=O)[O-])cc1Br
log10 MIC: 2.11
--
COMPOUND_STRING: O=C(c1ccccc1C(F)(F)F)N(/N=N/c1ccc([N+](=O)[O-])cc1Cl)c1ccc([N+](=O)[O-])cc1Cl
log10 MIC: 1.81
--
COMPOUND_STRING: O=C(CCl)N(/N=N/c1ccc([N+](=O)[O-])cc1C(F)(F)F)c1ccc([N+](=O)[O-])cc1C(F)(F)F
log10 MIC: 2.11
--
COMPOUND_STRING: O=C(c1ccccc1C(F)(F)F)N(/N=N/c1ccc([N+](=O)[O-])cc1C(F)(F)F)c1ccc([N+](=O)[O-])cc1C(F)(F)F
log10 MIC: 2.11
--
COMPOUND_STRING: O=C(c1ccc(C(F)(F)F)cc1)N(/N=N/c1ccc([N+](=O)[O-])cc1Cl)c1ccc([N+](=O)[O-])cc1Cl
log10 MIC: 1.81
--
COMPOUND_STRING: CC(=O)N(/N=N/c1ccc([N+](=O)[O-])cc1C(F)(F)F)c1ccc([N+](=O)[O-])cc1C(F)(F)F
log10 MIC: 1.81
--
COMPOUND_STRING: O=C(c1cccnc1)N(/N=N/c1ccc([N+](=O)[O-])c(C(F)(F)F)c1)c1ccc([N+](=O)[O-])c(C(F)(F)F)c1
log10 MIC: 1.51
--
COMPOUND_STRING: CC(=O)N(/N=N/c1ccc([N+](=O)[O-])cc1)c1ccc([N+](=O)[O-])cc1
log10 MIC: 1.81
--
COMPOUND_STRING: O=C(c1cccnc1)N(/N=N/c1ccc([N+](=O)[O-])cc1Br)c1ccc([N+](=O)[O-])cc1Br
log10 MIC: 1.20
--
COMPOUND_STRING: CC(=O)OCC(=O)N(/N=N/c1ccc([N+](=O)[O-])cc1Br)c1ccc([N+](=O)[O-])cc1Br
log10 MIC: 1.81
--
COMPOUND_STRING: O=C(CCl)N(/N=N/c1ccc([N+](=O)[O-])cc1Br)c1ccc([N+](=O)[O-])cc1Br
log10 MIC: 1.81
--
COMPOUND_STRING: O=C(c1cccc(F)c1)N(/N=N/c1ccc([N+](=O)[O-])cc1Cl)c1ccc([N+](=O)[O-])cc1Cl
log10 MIC: 1.81
--
COMPOUND_STRING: O=C(c1cccnc1)N(/N=N/c1ccc([N+](=O)[O-])cc1)c1ccc([N+](=O)[O-])cc1
log10 MIC: 0.90
--
COMPOUND_STRING: O=C(c1cccnc1)N(/N=N/c1ccc([N+](=O)[O-])cc1Cl)c1ccc([N+](=O)[O-])cc1Cl
log10 MIC: 1.51
--
COMPOUND_STRING: O=C(c1ccncc1)N(/N=N/c1ccc([N+](=O)[O-])c(C(F)(F)F)c1)c1ccc([N+](=O)[O-])c(C(F)(F)F)c1
log10 MIC: 1.51

All figures here come from ChEMBL document CHEMBL3994613.
